# TESTED_SYSTEM: M-CSF endogenously expressed on MDA-MB-231 cells (human) (UniProt P09603)
# EXPERIMENT: FACS, MDA-MB-231 cells endogenously expressing M-CSF (n = 2)
pEC50: −log10 of the molar value.
METRIC: pEC50

>  <BINDER>
Caline, IgG1_D265A (antibody, V domains shown) VH: QVQLQQSGPGLVKPSQTLSLTCAISGDSVSSNSAAWNWIRQSPSRGLEWLGRTYYRSKWKHEYAMSVKSRITINPDTSKNQFSLQLNSVTPEDTAVYYCARDRYYYSAFDYWGQGTLVTVSS VL: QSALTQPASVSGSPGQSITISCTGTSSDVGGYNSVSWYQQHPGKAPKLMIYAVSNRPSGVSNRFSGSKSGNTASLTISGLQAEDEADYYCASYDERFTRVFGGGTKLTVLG

>  <METRIC>
pEC50

>  <ENDPOINT_VALUE>
7.85

$$$$
>  <BINDER>
Meriem, IgG1_D265A (antibody, V domains shown) VH: QVQLQQSGPGLVKPSQTLSLTCAISGDSVSTSSAAWNWIRQSPSRGLEWLGRTYYRSKWKKEYAQSVKSRITINPDTSKNQFSLQLNSVTPEDTAVYYCARDRYYYSAFDYWGQGTLVTVSS VL: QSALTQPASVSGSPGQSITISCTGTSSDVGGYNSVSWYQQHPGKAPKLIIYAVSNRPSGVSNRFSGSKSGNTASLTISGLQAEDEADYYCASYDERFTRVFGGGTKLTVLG

>  <METRIC>
pEC50

>  <ENDPOINT_VALUE>
8.00

$$$$
>  <BINDER>
HeRX1-10G1, IgG1_D265A (antibody, V domains shown) VH: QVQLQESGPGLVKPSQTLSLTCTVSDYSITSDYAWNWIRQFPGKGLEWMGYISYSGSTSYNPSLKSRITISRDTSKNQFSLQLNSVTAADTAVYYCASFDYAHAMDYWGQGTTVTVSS VL: DIVLTQSPAFLSVTPGEKVTFTCQASQSIGTSIHWYQQKTDQAPKLLIKYASESISGIPSRFSGSGSGTDFTLTISSVEAEDAADYYCQQINSWPTTFGGGTKLEIKR

>  <METRIC>
pEC50

>  <ENDPOINT_VALUE>
7.64

$$$$
